Value source: ChEMBL document CHEMBL1122355

Consider the following compounds and their measured -Log ED50 readings.
# System: Echinochloa crus-galli
# experiment_summary: Herbicidal activity against barnyard grass (Echinochloa crusgalli L. Beauv.) as the dose required for 50% control
# Assay type: functional
Number in M acre-1, nothing else.

Field: example entries. Status: answers known.
>>> measured("COc1ccc(Br)c(CS(=O)(=O)c2cccc[n+]2[O-])c1")
0.6
>>> measured("Cc1ccc(C)c(C(C)S(=O)(=O)c2cccc[n+]2[O-])c1 (centres undefined)")
1.3
>>> measured("O=S(=O)(Cc1ccc(-c2ccccc2)cc1)c1cccc[n+]1[O-]")
-0.69
>>> measured("O=S(=O)(Cc1ccccc1F)c1cccc[n+]1[O-]")
0.37
>>> measured("CCCCOc1cccc(CS(=O)(=O)c2cccc[n+]2[O-])c1")
0.15

Fill in: Echinochloa crus-galli -Log ED50 for CC(c1cc(F)ccc1F)S(=O)(=O)c1cccc[n+]1[O-] (centres undefined) = 1.22

Fill in: Echinochloa crus-galli -Log ED50 for CC(c1cc(Cl)ccc1Cl)S(=O)(=O)c1cccc[n+]1[O-] (centres undefined) = 1.07

Fill in: Echinochloa crus-galli -Log ED50 for `Cc1ccc(C)c(CS(=O)(=O)c2cccc[n+]2[O-])c1` = 1.09

Fill in: Echinochloa crus-galli -Log ED50 for Cc1ccc(C(C)S(=O)(=O)c2cccc[n+]2[O-])cc1C (centres undefined) = 1.31
